# EXPERIMENTAL SYSTEM: alpha-synuclein (natural human wildtype alpha-synuclein) (human, UniProt P37840 1-140)
# EXPERIMENTAL DETAILS: BLI, ForteBio Octet QK; apparent kd
Measured koff, listed per entry.
Unit s⁻¹ implied. Number only.

Here is how some binders turned out for koff.
INSERT INTO measurements (binder, property_label, reading_unit, numeric_value) VALUES
  ('Humanized 1H7 H5L3 (Hu1H7VHv5-Hu1H7VLv3) (antibody, V domains shown) VH: QVQLVQSGAEVKKPGASVKVSCKASGYTFTSYYIHWVRQAPGQGLEWMGWIYPGSGNTKYSEKFKGRATMTADTSTSTAYMELRSLRSDDTAVYYCARDGSYGFAYWGQGTLVTVSS VL: DIQLTQSPSSLSASVGDRVTITCKASQSVDYDGDSYMNWYQQKPGKAPKFLICAASNLESGVPSRFSGSGSGTDFTLTISSLQPEDFATYYCQQSNEDPFTFGQGTKLEIK', 'koff', 's⁻¹', 0.002),
  ('Humanized 1H7 H4L2 (Hu1H7VHv4-Hu1H7VLv2) (antibody, V domains shown) VH: QVQLVQSGAEVKKPGASVKVSCKASGYSFTSYYIHWVRQAPGQGLEWIGWIYPGSGNTKYSEKFKGRATLTADTSTSTAYMELRSLRSDDTAVYFCARDGSYGFAYWGQGTLVTVSS VL: DIQLTQSPSSLSASVGDRVTITCKASQSVDYDGDSYMNWYQQKPGKAPKFLIYAASNLESGVPSRFSGSGSGTDFTLTISSLQPEDAATYYCQQSNEDPFTFGQGTKLEIK', 'koff', 's⁻¹', 0.0021),
  ('Humanized 1H7 H2L2 (Hu1H7VHv2-Hu1H7VLv2) (antibody, V domains shown) VH: QVQLVQSGAEVKKPGASVKVSCKASGYSFTSYYIHWVRQAPGQGLEWIGWIYPGSGNTKYSEKFKGRATLTADTSTSTAYMELRSLRSDDTAVYFCARDGCYGFAYWGQGTLVTVSS VL: DIQLTQSPSSLSASVGDRVTITCKASQSVDYDGDSYMNWYQQKPGKAPKFLIYAASNLESGVPSRFSGSGSGTDFTLTISSLQPEDAATYYCQQSNEDPFTFGQGTKLEIK', 'koff', 's⁻¹', 0.0046);

Exam item: Name the reported koff value associated with the binder Humanized 1H7 H2L1 (Hu1H7VHv2-Hu1H7VLv1) (antibody, V domains shown) VH: QVQLVQSGAEVKKPGASVKVSCKASGYSFTSYYIHWVRQAPGQGLEWIGWIYPGSGNTKYSEKFKGRATLTADTSTSTAYMELRSLRSDDTAVYFCARDGCYGFAYWGQGTLVTVSS VL: DIQLTQSPSSLSASVGDRVTITCKASQSVDYDGDSYMNWYQQKPGKAPKFLICAASNLESGVPSRFSGSGSGTDFTLTISSLQPEDAATYYCQQSNEDPFTFGQGTKLEIK
Marked response: 4.2e-06

Exam item: # input binder: Humanized 1H7 H1L1 (Hu1H7VHv1-Hu1H7VLv1) (antibody, V domains shown) VH: QVQLVQSGAELKKPGASVKVSCKASGYSFTSYYIHWVKQAPGQGLEWIGWIYPGSGNTKYSEKFKGRATLTADTSTSTAYMELRSLRSDDTAVYFCARDGCYGFAYWGQGTLVTVSS VL: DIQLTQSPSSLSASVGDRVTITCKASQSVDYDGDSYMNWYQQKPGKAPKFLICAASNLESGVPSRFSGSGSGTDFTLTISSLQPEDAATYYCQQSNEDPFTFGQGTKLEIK ; wanted: its koff
Marked response: 0.0012
